These data points were gathered from paper PMC10786891.

assaySystem: T1, EsCas13d, nuclease-dead (Eubacterium siraeum, UniProt B0MS50, R295A;H300A;R849A;H854A)
T1 sequence: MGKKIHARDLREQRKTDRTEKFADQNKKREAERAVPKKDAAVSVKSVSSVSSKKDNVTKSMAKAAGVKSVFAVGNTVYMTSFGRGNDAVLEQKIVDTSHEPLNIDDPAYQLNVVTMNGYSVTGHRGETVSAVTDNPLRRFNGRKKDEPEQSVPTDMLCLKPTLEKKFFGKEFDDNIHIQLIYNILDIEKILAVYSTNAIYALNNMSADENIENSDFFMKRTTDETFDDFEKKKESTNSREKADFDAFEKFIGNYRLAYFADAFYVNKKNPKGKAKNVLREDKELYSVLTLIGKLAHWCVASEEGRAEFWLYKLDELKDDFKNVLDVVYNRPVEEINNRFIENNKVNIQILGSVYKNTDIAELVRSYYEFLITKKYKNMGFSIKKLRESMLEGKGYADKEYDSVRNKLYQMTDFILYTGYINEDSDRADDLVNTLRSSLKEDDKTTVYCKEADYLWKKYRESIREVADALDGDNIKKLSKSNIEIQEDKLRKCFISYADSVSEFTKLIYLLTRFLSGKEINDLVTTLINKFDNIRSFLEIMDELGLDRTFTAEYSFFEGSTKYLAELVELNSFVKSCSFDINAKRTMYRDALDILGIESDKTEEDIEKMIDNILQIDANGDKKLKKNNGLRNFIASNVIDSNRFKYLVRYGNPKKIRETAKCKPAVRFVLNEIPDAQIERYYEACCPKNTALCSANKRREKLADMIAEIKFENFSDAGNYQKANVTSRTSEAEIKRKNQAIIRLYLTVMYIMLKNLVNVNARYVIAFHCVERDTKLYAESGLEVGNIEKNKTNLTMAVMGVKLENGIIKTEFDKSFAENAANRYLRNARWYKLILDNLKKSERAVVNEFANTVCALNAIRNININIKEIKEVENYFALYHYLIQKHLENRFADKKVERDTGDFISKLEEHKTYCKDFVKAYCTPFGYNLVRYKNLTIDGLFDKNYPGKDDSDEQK
assayDetails: crRNA (strand 1, pre-loaded); Mg2+; 40 mM Tris-HCl pH 7.5, 150 mM NaCl, 6 mM MgCl2, 1 mM DTT, 0.1% Tween-20, 0.2 mg/ml BSA; 25 C; 10 min per concentration, then washed
conditionSet: tags: His6-TwinStrep-SUMO cleaved; N-terminal SNAP kept (SNAP-Surface 488); label: 3' end held by stalled T7 RNA polymerase
Measured Kd by item
Please reply with the bare figure in nM and do not write the unit itself.

Reference set, count: 3
binder: target 3 insA 3' of 8,insG 3' of 8 (mixed) RNA 1: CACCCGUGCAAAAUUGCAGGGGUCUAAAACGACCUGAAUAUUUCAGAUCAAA RNA 2: GGGAAUGGAUCCACAUCUACGAAUUCGUUUUUGAUCUGAAAUAUAGUCAGGUCUGCAGAUCGGAAGAGCACACGU
numericResult: 53.5

binder: target 1 insA 3' of 11,insG 3' of 3 (mixed) RNA 1: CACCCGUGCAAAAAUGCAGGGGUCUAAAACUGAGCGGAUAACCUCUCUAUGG RNA 2: GGGAAUGGAUCCACAUCUACGAAUUCGUACCAUAGAGAGGUAUAUCCGCUGCACCGAGAUCGGAAGAGCACACGU
numericResult: 12.1

binder: target 1 insG 3' of 11,insU 3' of 1 (mixed) RNA 1: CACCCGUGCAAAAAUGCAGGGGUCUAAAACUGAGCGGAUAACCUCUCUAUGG RNA 2: GGGAAUGGAUCCACAUCUACGAAUUCGUACCAUAGAGAGGUGUAUCCGCUCAUCCGAGAUCGGAAGAGCACACGU
numericResult: 56

For target 1 complement block 1-3 (mixed) RNA 1: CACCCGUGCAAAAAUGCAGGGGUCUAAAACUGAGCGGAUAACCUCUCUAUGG RNA 2: GGGAAUGGAUCCACAUCUACGAAUUCGUACCAUAGAGAGGUUAUCCGCAGUCCGAGAUCGGAAGAGCACACGU , what is its reported Kd? 7
